pIC50 values, listed per item
Target: UniProt Q64654
Sequence (Q64654 1-503): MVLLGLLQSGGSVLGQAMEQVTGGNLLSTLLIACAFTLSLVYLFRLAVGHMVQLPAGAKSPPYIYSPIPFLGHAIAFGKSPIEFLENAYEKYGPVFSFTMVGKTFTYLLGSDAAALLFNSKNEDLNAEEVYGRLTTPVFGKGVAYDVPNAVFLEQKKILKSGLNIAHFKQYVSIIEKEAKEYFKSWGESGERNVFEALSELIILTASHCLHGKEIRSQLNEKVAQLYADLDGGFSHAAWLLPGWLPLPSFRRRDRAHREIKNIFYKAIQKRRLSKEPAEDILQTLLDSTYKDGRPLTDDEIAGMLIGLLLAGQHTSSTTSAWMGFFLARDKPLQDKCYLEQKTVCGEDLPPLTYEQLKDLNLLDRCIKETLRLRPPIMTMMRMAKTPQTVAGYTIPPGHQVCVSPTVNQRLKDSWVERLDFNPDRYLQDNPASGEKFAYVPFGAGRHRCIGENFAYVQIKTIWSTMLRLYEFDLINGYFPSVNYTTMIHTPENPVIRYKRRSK
Scale explanation: pIC50 corresponds to minus log10 of a concentration expressed in moles per litre.

1) C=CC(O)[C@@]12CC[C@H]([C@H](C)CCCC(C)C)[C@@]1(C)CCC1=C2CC[C@H]2C(C)(C)[C@@H](O)CC[C@]12C (single isomer, unassigned) [Compound 12a] | 5.49

Moving on to another compound below.
Task: What value of pIC50 on UniProt Q64654 does CC(C)CCC[C@@H](C)[C@H]1CC[C@@]2(C#N)C3=C(CC[C@]12C)[C@@]1(C)CC[C@H](O)C(C)(C)[C@@H]1CC3 [Compound 17a] have?
Output: 4.96

###

Here the recorded pIC50 is given for each entry.
Target: Lanosta-8,24-dien-3β-ol 14α-methyl demethylase (Rattus norvegicus)
To interpret pIC50, take it as minus log10 of a concentration measured in moles per litre.

Below, each entry is followed by its recorded pIC50 result.
1. CC(C)CCC[C@@H](C)[C@H]1CC[C@@]2(C(F)F)C3=CC[C@H]4C(C)(C)[C@@H](O)CC[C@]4(C)[C@H]3CC[C@]12C [Compound 9b, 32,32-difluoro-lanost-7-en-3β-ol] | 4.43
2. CC(C)CCC[C@@H](C)[C@H]1CC(=NO)[C@@]2(C)C3=CC[C@H]4C(C)(C)[C@@H](O)CC[C@]4(C)[C@H]3CC[C@]12C [Compound 31b, 3β-hydroxy-lanost-7-en-15-oxime] | 4.26

Task: Given the entry CC(C)CCC[C@@H](C)[C@H]1CC[C@@]2(C=NO)C3=C(CC[C@]12C)[C@@]1(C)CC[C@H](O)C(C)(C)[C@@H]1CC3 [Compound 15a, lanost-8-en-32-aldoxime-3β-ol] , what pIC50 was observed with Lanosta-8,24-dien-3β-ol 14α-methyl demethylase (Rattus norvegicus)?
Output: 5.96

###

The reader will find pIC50 measurements below, all made with Lanosta-8,24-dien-3β-ol 14α-methyl demethylase (Rattus norvegicus).
Scale note: pIC50 = -log10(concentration in M).

1. CC(C)CCC[C@@H](C)[C@H]1C[C@H](O)[C@@]2(O)C3=C(CC[C@]12C)[C@@]1(C)CC[C@H](O)C(C)(C)[C@@H]1CC3 [Compound 34a] | 5.52
2. CC(C)CCC[C@@H](C)[C@H]1CC[C@@]2(C=NO)C3=CC[C@H]4C(C)(C)[C@@H](O)CC[C@]4(C)[C@H]3CC[C@]12C [Compound 15b, lanost-7-en-32-aldoxime-3β-ol] | 5.52

Would you kindly look at the next entry?
Task: Could you share what pIC50 was measured for CC(C)CCC[C@@H](C)[C@H]1CC[C@@]2(C(F)F)C3=C(CC[C@]12C)[C@@]1(C)CC[C@H](O)C(C)(C)[C@@H]1CC3 [Compound 9a, 32,32-difluoro-lanost-8-en-3β-ol] , tested on Lanosta-8,24-dien-3β-ol 14α-methyl demethylase (Rattus norvegicus)?
Output: 4.80
